Below: a set of entries, each annotated with reported pIC50.
Target: Human C5 (Homo sapiens)
Construct: purchased Complement Technology
Sequence (P01031 19-1676): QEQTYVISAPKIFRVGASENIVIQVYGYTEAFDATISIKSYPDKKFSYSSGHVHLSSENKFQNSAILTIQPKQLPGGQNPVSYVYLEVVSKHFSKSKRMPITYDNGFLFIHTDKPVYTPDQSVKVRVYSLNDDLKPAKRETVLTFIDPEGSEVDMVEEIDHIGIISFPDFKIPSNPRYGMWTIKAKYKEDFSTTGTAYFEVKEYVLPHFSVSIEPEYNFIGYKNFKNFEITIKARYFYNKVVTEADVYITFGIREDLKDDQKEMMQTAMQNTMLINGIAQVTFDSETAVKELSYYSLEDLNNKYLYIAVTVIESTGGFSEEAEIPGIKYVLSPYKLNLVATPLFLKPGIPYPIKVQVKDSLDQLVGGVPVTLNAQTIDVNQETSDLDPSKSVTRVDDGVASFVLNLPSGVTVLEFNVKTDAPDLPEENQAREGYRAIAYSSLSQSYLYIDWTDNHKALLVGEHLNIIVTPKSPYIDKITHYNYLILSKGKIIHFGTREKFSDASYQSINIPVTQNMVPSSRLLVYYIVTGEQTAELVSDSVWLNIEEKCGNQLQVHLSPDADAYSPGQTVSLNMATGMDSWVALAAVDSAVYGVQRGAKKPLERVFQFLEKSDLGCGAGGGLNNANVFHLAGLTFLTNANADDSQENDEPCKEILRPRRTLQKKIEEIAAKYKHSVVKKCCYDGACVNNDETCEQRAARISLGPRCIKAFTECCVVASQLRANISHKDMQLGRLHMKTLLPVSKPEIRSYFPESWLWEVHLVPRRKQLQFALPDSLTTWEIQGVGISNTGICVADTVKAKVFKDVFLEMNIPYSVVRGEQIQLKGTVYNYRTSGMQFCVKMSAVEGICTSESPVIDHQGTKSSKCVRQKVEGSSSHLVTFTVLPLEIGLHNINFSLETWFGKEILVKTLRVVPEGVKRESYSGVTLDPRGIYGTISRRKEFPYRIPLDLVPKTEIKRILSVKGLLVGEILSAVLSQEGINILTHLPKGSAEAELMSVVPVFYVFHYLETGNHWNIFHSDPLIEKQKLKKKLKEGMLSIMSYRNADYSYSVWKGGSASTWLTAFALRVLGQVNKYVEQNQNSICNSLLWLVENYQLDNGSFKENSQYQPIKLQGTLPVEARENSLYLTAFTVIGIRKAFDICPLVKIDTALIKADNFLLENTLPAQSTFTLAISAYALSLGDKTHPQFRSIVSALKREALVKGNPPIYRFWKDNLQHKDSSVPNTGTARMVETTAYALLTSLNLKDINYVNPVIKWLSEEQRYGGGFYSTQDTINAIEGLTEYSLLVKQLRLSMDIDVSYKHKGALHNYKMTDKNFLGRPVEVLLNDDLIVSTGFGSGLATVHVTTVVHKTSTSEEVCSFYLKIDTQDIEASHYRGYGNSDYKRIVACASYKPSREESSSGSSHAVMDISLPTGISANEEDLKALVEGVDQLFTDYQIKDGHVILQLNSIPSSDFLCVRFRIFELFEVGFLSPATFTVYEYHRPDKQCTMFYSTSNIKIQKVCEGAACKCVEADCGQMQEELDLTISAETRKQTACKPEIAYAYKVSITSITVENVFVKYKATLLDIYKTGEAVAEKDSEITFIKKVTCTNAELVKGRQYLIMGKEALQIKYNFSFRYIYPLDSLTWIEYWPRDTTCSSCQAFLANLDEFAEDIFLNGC
Assay: Red blood cell (RBC) hemolysis assay, luminescent (Example 13, Table 22); further: 1.5% C5-depleted human serum
Assay type: cell-based
Conditions: sheep EA cells, […] C5-depleted human serum, 0.5 nM human C5, 1 hour 37° C., luminescence
pIC50: −log10 of the molar value.

compound | pIC50
CCCCCOc1cc(N2CCCN(Cc3cccc4c3OCO4)C2=O)ccc1OC [CU0065] | 6.91
CCCCCOc1cc(N2CCCN(C(C)c3ccnc4c3ccn4C3CCN(C)C3=O)C2=O)ccc1OC (stereo not drawn) [CU0040(2)] | 7.12
COc1cc(Cl)ccc1CN1CCCN(c2ccc(OC)c(OCc3ccccc3)c2)C1=O [CU0162] | 5.54
CCC(F)(F)CCOc1cc(N2CCCN(Cc3ccc(CC(=O)N(C)C)cc3OC)C2=O)ccc1OC [CU0171] | 7.35
CCCCCOc1cc(N2CCCN(Cc3cccc(-c4cnn(C5CCN(C)CC5)c4)c3F)C2=O)ccc1OC [CU0127] | 7.52
CCCCCOc1cc(N2CCCN(Cc3ccnc4c3ccn4CC(=O)N3CCN(C)C(=O)C3)C2=O)ccc1C1CC1 [CU0061] | 7.28
CCCCCOc1cc(N2CCCN(Cc3ccc(CC(=O)N4CCO[C@@H](CN(C)C)C4)cc3OC)C2=O)ccc1OC (stereo in doubt) [CU0186] | 7.73
CCC(F)(F)CCOc1cc(N2CCCN(Cc3ccc(CC(=O)N4CCO[C@H](COC)C4)cc3OC)C2=O)ccc1OC [CU0197] | 7.50
CCCC(F)(F)COc1cc(N2CCCN(Cc3ccc(CC(=O)N(C)C)cc3OC)C2=O)ccc1OC [CU0111] | 7.60
CCCCCOc1cc(N2CCCN(Cc3cc(-c4cnn(C5CCN(C)CC5)c4)ccc3OC)C2=O)ccc1OC [CU0152] | 6.84
CCCCCOc1cc(N2CCCN(Cc3ccc(CC(=O)N4CCO[C@@H](COC)C4)cc3OC)C2=O)ccc1OC [CU0224] | 7.81
CCCCCOc1cc(N2CCCN(Cc3ccnc4c3ccn4CC(=O)N3CCOCC3)C2=O)ccc1C1CC1 [CU0044] | 7.06
CCCCCOc1cc(N2CCCN(Cc3cccc4c3ccn4Cc3cccnc3)C2=O)ccc1OC [CU0023] | 7.68
CCCCCOc1cc(N2CCCN(Cc3cccc4c3ccn4CC(=O)N3CCN(C)C(=O)C3)C2=O)ccc1OC [CU0246] | 7.97
CCCCCOc1cc(N2CCCN(Cc3ccc(CCN4CCCC4)cc3OC)C2=O)ccc1OC [CU0123] | 7.77
CCCCCOc1cc(N2CCCN(Cc3ccnc4c3ccn4CC(=O)N3CCN(C)C(=O)C3)C2=O)ccc1OC [CU0060] | 7.39
COc1ccc(F)cc1CN1CCCN(c2ccc(OC)c(OCc3cccc(C(F)(F)F)c3)c2)C1=O [CU0223] | 6.40
COc1ccc(F)cc1CN1CCCN(c2ccc(OC)c(OCc3ccccc3C)c2)C1=O [CU0182] | 6.03
CCCCCOc1cc(N2CCCN(Cc3ccc(CNC(=O)C4CN(C)C4)cc3OC)C2=O)ccc1OC [CU0191] | 7.06
CCCCCOc1cc(N2CCN(C[C@@H](O)c3ccccc3)C2=O)ccc1OC [CU0016] | 5.58
CCCCCOc1cc(N2CCCN(Cc3cccc(-c4cnn(CC(C)C)c4)c3F)C2=O)ccc1OC [CU0126] | 6.82
CCCCCOc1cc(N2CCCN(Cc3ccnc4c3ccn4C3CCN(C)C3=O)C2=O)ccc1OC (single isomer, unassigned) [CU0039(1)] | 7.52
C#CCCCOc1cc(N2CCCN(Cc3cc(F)ccc3OC)C2=O)ccc1OC [CU0179] | 6.81
CCCCCOc1cc(N2CCCN(C(C)c3ccnc4c3ccn4C3CCN(C)C3=O)C2=O)ccc1OC (stereo not drawn) [CU0040(1)] | 7.18
COc1ccc(N2CCCN(Cc3cccc4[nH]ccc34)C2=O)cc1OCCCC(C)(F)F [CU0240] | 7.37
CCCCCOc1cc(N2CCN(Cc3cccnc3OC)C2=O)ccc1OC [CU0017] | 6.97
CCCCCOc1cc(N2CCCN(Cc3ccc(CC(=O)N4CCCOCC4)cc3OC)C2=O)ccc1C1CC1 [CU0114] | 7.00
CCCCCOc1cc(N2CCCN(Cc3ccc(CNC(=O)OC4CC4)cc3OC)C2=O)ccc1OC [CU0202] | 7.97
CCCCCOc1cc(N2CCN(Cc3ccnc4c3ccn4CC(=O)N(C)C)C2=O)ccc1C1CC1 [CU0034] | 5.91
CCCCCOc1cc(N2CCCN(Cc3ccnc4c3ccn4CC(=O)N3CCOC(CN4CCCC4)C3)C2=O)ccc1OC (stereo not drawn) [CU0051] | 7.34
CCCCCOc1cc(N2CCCN(Cc3cc(OC)cc(-c4cnn(C5CCN(C)CC5)c4)c3)C2=O)ccc1OC [CU0158] | 7.56
CCC#CCOc1cc(N2CCCN(Cc3cc(F)ccc3OC)C2=O)ccc1OC [CU0169] | 7.08
COc1ccc(F)cc1CN1CCCN(c2ccc(OC)c(OCCC3CCCC3)c2)C1=O [CU0185] | 6.74
